Attribution: patent US7692014B2

In this section, each of the molecules is paired with its reported log10 IC50.
targetOrTestSystem: Full-length wild type HIV-1 integrase (SF1) (Human immunodeficiency virus type 1 group M subtype B, UniProt P04585)
Construct: made in house; host or cells: E. coli BL21 (DE3), pET24a vector
protocolText: Integrase strand-transfer scintillation proximity assay
Type: biochemical
conditionParameters: integrase strand-transfer SPA; read-out: IC50
Heads up: the numbers are on a log10 scale; they represent IC50 in nM.

[[record]]
molecule = "O=c1c2ncc3c(c(CNCc4ccc(C(F)(F)F)cc4)cn3Cc3ccc(F)cc3)c2ccn1O [Example 43]"
property = "log10 IC50"
testresult = 2.09

[[record]]
molecule = "O=C1CN(S(=O)(=O)c2cn(Cc3ccc(F)cc3)c3cnc4c(=O)n(O)ccc4c23)CCN1 [Example 22]"
property = "log10 IC50"
testresult = 0.78

[[record]]
molecule = "O=c1c2ncc3c(c(CN4CCN5C[C@H](O)CC5C4)cn3Cc3ccc(F)cc3)c2ccn1O (some centres unmarked) [Example 55]"
property = "log10 IC50"
testresult = 0.85

[[record]]
molecule = "CCS(=O)(=O)N1CCN(Cc2cn(Cc3ccc(F)cc3)c3cnc4c(=O)n(O)ccc4c23)CC1 [Example 52]"
property = "log10 IC50"
testresult = 1.02

[[record]]
molecule = "O=C1NCCC12CCN(Cc1cn(Cc3ccc(F)cc3)c3cnc4c(=O)n(O)ccc4c13)CC2 [Example 13]"
property = "log10 IC50"
testresult = 0.90


Query block: Supply recorded log10 IC50 for O=c1c2ncc3c(c(S(=O)(=O)NCCc4c[nH]c5ccccc45)cn3Cc3ccc(F)cc3)c2ccn1O [Example 21] here.
Result block: 1.66

Query block: Supply recorded log10 IC50 for O=c1c2ncc3c(c(COC[C@@H](O)CO)cn3Cc3ccc(F)cc3)c2ccn1O [Example 31] here.
Result block: 0.95

Query block: Supply recorded log10 IC50 for CC(=O)N1CCN(C(=O)c2cn(Cc3ccc(F)cc3)c3cnc4c(=O)n(O)ccc4c23)CC1 [Example 27] here.
Result block: 1.11

###

In this section, each of the compounds is paired with its reported log10(IC50).
targetOrTestSystem: Full-length wild type HIV-1 integrase (SF1) (Human immunodeficiency virus type 1 group M subtype B)
Construct: made in house; host or cells: E. coli BL21 (DE3), pET24a vector
protocolText: Integrase strand-transfer scintillation proximity assay
Assay type: biochemical
conditionParameters: integrase strand-transfer SPA; read-out: IC50
Heads up: the numbers are on a log10 scale; they represent IC50 in nM.

In the examples that follow, each entry is paired with its recorded log10(IC50).
[[record]]
querysmiles = "O=C1NC[C@@H]2CCN(Cc3cn(Cc4ccc(F)cc4)c4cnc5c(=O)n(O)ccc5c34)C[C@H]12"
property = "log10(IC50)"
testresult = 1.06

[[record]]
querysmiles = "CCN(CC)CCN(CC)Cc1cn(Cc2ccc(F)cc2)c2cnc3c(=O)n(O)ccc3c12"
property = "log10(IC50)"
testresult = 1.06

[[record]]
querysmiles = "CCN(Cc1ccc(C)cc1)Cc1cn(Cc2ccc(F)cc2)c2cnc3c(=O)n(O)ccc3c12"
property = "log10(IC50)"
testresult = 1.24


Please turn your attention to the following entry.
Query block: Supply recorded log10(IC50) for CCCNCc1cn(Cc2ccc(F)cc2)c2cnc3c(=O)n(O)ccc3c12 here.
Result block: 1.79

###

targetOrTestSystem: Full-length wild type HIV-1 integrase (SF1) (Human immunodeficiency virus type 1 group M subtype B)
Construct: made in house; host or cells: E. coli BL21 (DE3), pET24a vector
protocolText: Integrase strand-transfer scintillation proximity assay
Format: biochemical
conditionParameters: integrase strand-transfer SPA; read-out: IC50
property: IC50

[[record]]
compound = "Cc1cc2c(ncc3c2ccn3Cc2ccc(F)cc2)c(=O)n1O"
property = "IC50"
testresult = "11 nM"


Query block: Supply recorded IC50 for O=C(CN1CCN(Cc2cn(Cc3ccc(F)cc3)c3cnc4c(=O)n(O)ccc4c23)CC1)N1CCCC1 here.
Result block: 5 nM

Query block: Supply recorded IC50 for C[C@@H](OCc1cn(Cc2ccc(F)cc2)c2cnc3c(=O)n(O)ccc3c12)c1ccccc1 here.
Result block: 120 nM

###

In this section, each of the compounds is paired with its reported pIC50.
targetOrTestSystem: Full-length wild type HIV-1 integrase (SF1) (Human immunodeficiency virus type 1 group M subtype B)
Construct: made in house; host or cells: E. coli BL21 (DE3), pET24a vector
protocolText: Integrase strand-transfer scintillation proximity assay
Assay type: biochemical
conditionParameters: integrase strand-transfer SPA; read-out: IC50
Note on units: pIC50 is unitless, being -log10 of a concentration expressed in mol/L.

[[record]]
querysmiles = "CCN(Cc1cn(Cc2ccc(F)cc2)c2cnc3c(=O)n(O)ccc3c12)C1CCCCC1"
property = "pIC50"
testresult = 7.89


Query block: Supply recorded pIC50 for CN(CCc1ccccn1)Cc1cn(Cc2ccc(F)cc2)c2cnc3c(=O)n(O)ccc3c12 here.
Result block: 8.22

Query block: Supply recorded pIC50 for CN(C)S(=O)(=O)c1cn(Cc2ccc(F)cc2)c2cnc3c(=O)n(O)ccc3c12 here.
Result block: 8.00

Query block: Supply recorded pIC50 for O=c1c2ncc3c(c(CN4CCOCC4)cn3Cc3ccc(F)cc3)c2ccn1O here.
Result block: 8.15

###

targetOrTestSystem: Full-length wild type HIV-1 integrase (SF1) (Human immunodeficiency virus type 1 group M subtype B, UniProt P04585)
Construct: made in house; host or cells: E. coli BL21 (DE3), pET24a vector
protocolText: Integrase strand-transfer scintillation proximity assay
Format: biochemical
conditionParameters: integrase strand-transfer SPA; read-out: IC50
In this section, each of the compounds is paired with its reported pIC50.
Note on units: pIC50 is unitless, being -log10 of a concentration expressed in mol/L.

[[record]]
compound = "CCCN(CCO)Cc1cn(Cc2ccc(F)cc2)c2cnc3c(=O)n(O)ccc3c12"
testresult = 7.96


Query block: Supply recorded pIC50 for O=C(c1cn(Cc2ccc(F)cc2)c2cnc3c(=O)n(O)ccc3c12)N1CCCC1 here.
Result block: 8.05

Query block: Supply recorded pIC50 for O=C1c2ncc3c(ccn3Cc3ccc(F)cc3)c2CCCN1O [Example 45] here.
Result block: 7.62

Query block: Supply recorded pIC50 for O=c1c2ncc3c(c(S(=O)(=O)NCC(F)(F)F)cn3Cc3ccc(F)cc3)c2ccn1O here.
Result block: 8.30

Query block: Supply recorded pIC50 for Cc1cnc(CNCc2cn(Cc3ccc(F)cc3)c3cnc4c(=O)n(O)ccc4c23)cn1 here.
Result block: 7.27
